system: PFHR-9 cells; experiment: Collagen IV sulfilimine crosslink formation in PFHR-9 cell culture (NC1 hexamer, SDS-PAGE); assay type: cell-based, mouse; details: inhibitor present during cellular deposition of basement membrane; FIG. 2A: PHG 50 μM, MMI 1 mM, KI 10 mM, 3-AT 10 mM, BAPN 500 μM, putrescine 2.5 mM
readout: formation of collagen IV crosslinks

- NCCCCN [putrescine]: had no effect
- N#CCCN [β-aminopropionitrile]: had no effect

----------
target: human peroxidasin (Homo sapiens, UniProt Q92626); assay: biochemical
Sequence (Q92626 27-1479): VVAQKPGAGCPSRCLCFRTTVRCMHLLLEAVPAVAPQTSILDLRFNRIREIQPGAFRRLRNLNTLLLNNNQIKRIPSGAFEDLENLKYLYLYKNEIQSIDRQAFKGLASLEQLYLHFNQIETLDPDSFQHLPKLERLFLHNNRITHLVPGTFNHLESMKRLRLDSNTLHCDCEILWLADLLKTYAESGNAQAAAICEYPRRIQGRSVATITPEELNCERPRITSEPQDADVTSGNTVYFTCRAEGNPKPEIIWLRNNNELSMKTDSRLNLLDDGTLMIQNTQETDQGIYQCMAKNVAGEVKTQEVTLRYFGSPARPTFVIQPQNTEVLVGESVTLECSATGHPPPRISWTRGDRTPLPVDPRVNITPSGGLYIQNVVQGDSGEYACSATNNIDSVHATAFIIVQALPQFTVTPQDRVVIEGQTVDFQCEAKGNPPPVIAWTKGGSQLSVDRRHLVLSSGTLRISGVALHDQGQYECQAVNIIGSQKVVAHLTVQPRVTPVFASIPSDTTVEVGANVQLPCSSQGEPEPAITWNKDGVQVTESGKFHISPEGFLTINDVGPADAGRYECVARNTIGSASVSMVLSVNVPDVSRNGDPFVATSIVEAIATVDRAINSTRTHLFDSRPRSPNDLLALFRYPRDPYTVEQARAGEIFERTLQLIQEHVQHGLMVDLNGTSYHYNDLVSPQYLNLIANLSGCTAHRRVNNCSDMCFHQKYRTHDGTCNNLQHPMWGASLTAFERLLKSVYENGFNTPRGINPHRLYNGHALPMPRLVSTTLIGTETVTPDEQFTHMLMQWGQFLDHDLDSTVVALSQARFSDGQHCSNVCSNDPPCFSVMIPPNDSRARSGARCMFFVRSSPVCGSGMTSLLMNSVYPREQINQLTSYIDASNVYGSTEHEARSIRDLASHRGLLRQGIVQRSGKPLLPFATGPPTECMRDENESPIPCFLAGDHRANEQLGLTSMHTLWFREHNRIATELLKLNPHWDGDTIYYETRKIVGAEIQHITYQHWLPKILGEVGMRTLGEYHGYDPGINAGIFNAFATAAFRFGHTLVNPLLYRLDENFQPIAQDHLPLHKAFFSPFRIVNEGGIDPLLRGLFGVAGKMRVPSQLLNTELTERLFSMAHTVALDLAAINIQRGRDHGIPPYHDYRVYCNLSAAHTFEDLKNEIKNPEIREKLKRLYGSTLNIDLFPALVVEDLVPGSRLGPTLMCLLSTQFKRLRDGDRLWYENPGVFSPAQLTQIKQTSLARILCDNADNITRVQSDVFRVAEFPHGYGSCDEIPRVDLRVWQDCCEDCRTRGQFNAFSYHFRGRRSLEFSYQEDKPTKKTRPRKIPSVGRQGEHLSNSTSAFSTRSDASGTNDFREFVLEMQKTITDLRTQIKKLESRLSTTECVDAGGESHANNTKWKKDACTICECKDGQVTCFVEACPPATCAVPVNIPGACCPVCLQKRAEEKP
readout: EC50 (nM)
Answers are plain numbers, in nM.

Exercise: Given the compound Br [bromide] , write its reported EC50.
Key: 2700
